Provenance of the data: PubChem BioAssay (NCI)

system: SF-268 CNS; test: NCI-60 one-dose screen, 48 h; details: 10 µM unless noted
The panel holds about 83,000 compounds, 20% with a hit somewhere; the sample as a whole holds those more often. Calls of active or inactive are those of the source. How the source made its calls: active means growth percent below 10; inactive means the rest.
Labels: active, inactive

compound	assignedCategory
O=C1NC(=S)S/C1=C\c1cccc([N+](=O)[O-])c1	inactive
COc1ccc(/C=C2\CN(Cc3cn(CCCNc4ccnc5cc(Cl)ccc45)nn3)C/C(=C\c3ccc(OC)c(OC)c3)C2=O)cc1OC	active
COC(=O)[C@@H]1CCCN1C(=O)[C@@H]1CCCN1C(=O)[C@@H](Cc1c[nH]c2ccccc12)NC(=S)Nc1cc(C(F)(F)F)cc(C(F)(F)F)c1	inactive
O=C1/C(=C/c2ccc(F)cc2)CN(Cc2cn(CCNc3ccnc4cc(Cl)ccc34)nn2)C/C1=C\c1ccc(F)cc1	active
COc1ccc(NS(=O)(=O)c2ccc(-c3cnc(C4CC4)o3)cc2)cc1	inactive
COc1cc(C(F)(F)F)ccc1-c1cc(-c2ccc(F)cc2)n[nH]1	inactive
FCOC(C(F)(F)F)C(F)(F)F	inactive
O/N=C/c1cccs1	inactive
Cc1nc2cc(Nc3nc(Nc4ccc(F)cc4)nc(-c4cccs4)n3)ccc2n1Cc1ccccc1	inactive
O=C1c2[nH]cc(CN[C@@H]3CCCN3)c2C(=O)c2c1c(O)c1ccccc1c2O	active
CCCCCCCCCCCCCCNc1nc(CO)ncc1-c1ccc(C(F)(F)F)cc1	inactive
Cc1ccccc1-n1nnc(C(=O)Nc2ccc(-c3ccccc3)cn2)c1C	inactive
COc1cc(-c2nc(SC(C)C)nc(Nc3cccc(C)c3)c2C#N)cc(OC)c1OC	inactive
O=C1C(N2CCOCC2)=Cc2cccc3cccc1c23	inactive
NC1=NC(c2ccccc2OS(=O)(=O)c2ccc(Br)cc2)n2c(nc3ccccc32)N1 (stereo not given)	inactive
Cc1ccc2nc(NC(=O)CSC(=S)N3CCN(Cc4ccccc4)CC3)sc2c1	active
CN1CCN(C)c2cncc(Br)c2C1=O	inactive
CCOC(=O)c1c(Cl)c2c(n1Cc1ccc(OC)cc1)-c1oncc1CCC2	inactive
CCOC(=O)c1[nH]c2cc(Cl)ccc2c1[C@@H](C(=O)NC(C)(C)C)N(CC)C(=O)CCCCC#Cc1cccc2c1CN(C1CCC(=O)NC1=O)C2=O (stereo not given in full)	inactive
CC1=CN2C(=NC3=C(CCCC/C3=C\c3ccccc3)C2c2ccccc2)S1 (stereo not given)	inactive

----------
test system: DU-145 prostate; experiment: NCI-60 one-dose screen, 48 h (100 = growth as untreated, 0 = no growth, -100 = all killed); conditions: 10 µM unless noted
Compounds without any hit were thinned out: in the full panel of roughly 83,000, 20% have a hit.
measurementLabel: growth (%)

>>> df
                                    compound  measurementlabel  unittext  readoutvalue
 0  O=C1c2c(c3c4cc(Br)ccc4[nH]c3c3ccc4ccccc4c23)C(=O)N1O            growth         %           103
 1  CN1CCc2c(Sc3ccc(C(=O)NO)cc3)c3ccccc3n2C1            growth         %          36.8
 2               Cc1cc(Cl)c2c(Cl)ccc(Cl)c2n1            growth         %           112
 3  Cc1nc2cc(Nc3nc(N4CCOCC4)nc(N4CCN(C)CC4)n3)ccc2n1Cc1ccccc1            growth         %           114
 4  CCOC(=O)c1cn2c3c(cc(F)cc3c1=O)C(CC)c1ccccc1C2 (stereo not drawn)            growth         %           104
 5  COc1ccc(-c2cc(=O)oc3c4c(ccc23)OCN(Cc2ccc(F)cc2)C4)cc1            growth         %          73.4
 6  CCCCCn1c(=N)n(CC(O)COc2cccc(C)c2)c2ccccc21 (stereo not drawn)            growth         %          10.4
 7  CN1CCN(c2ccc3nc(-c4ccc5nc(-c6ccc(C(F)(F)F)cc6)[nH]c5c4)[nH]c3c2)CC1            growth         %          59.2
 8  COc1cc(C2=NN(c3ccc(S(N)(=O)=O)cc3)C(c3ccc(Cl)cc3)C2)cc(OC)c1OC (stereo not drawn)            growth         %          65.9
 9  COc1cc(/C=C/C(=O)CC(=O)/C=C/c2cc(Br)c(OC)c(OC)c2)cc(Br)c1OC            growth         %           108
10  C=C(C)COC(=O)c1ccccc1C(=O)OCC1(C)CO1 (stereo not drawn)            growth         %           104
11  COc1cc2cc(Oc3ccc(NC(=O)Nc4cccc(C(F)(F)F)c4)cc3)c(C)nc2cc1OCCN1CCCCC1            growth         %         -94.1
12  COC(=O)[C@H]1CCCN1C(=O)[C@H]1CCCN1C(=O)[C@@H](Cc1c[nH]c2ccccc12)NC(=S)Nc1cc(C(F)(F)F)cc(C(F)(F)F)c1            growth         %          51.7
13  CCN1CCN(c2nc3ccccc3c3c(=O)c4cc(F)ccc4sc23)CC1            growth         %          66.4
14  CC(=O)N(CC(O)CO)c1c(I)c(C(=O)NCCO)c(I)c(C(=O)NCC(O)CO)c1I (stereo not drawn)            growth         %           110
15  COc1ccc(Nc2nc(NCCNc3ccnc4cc(Cl)ccc34)nc(N3CCOCC3)n2)cc1            growth         %          67.7
16       CCCCC(CCCC)(S(=O)(=O)CC)S(=O)(=O)CC            growth         %           107
17  O=C(CCCCCCC(=O)Nc1ccc2c(c1)/C(=C/c1ccc[nH]1)C(=O)N2)NO            growth         %          4.55
18  COc1c(O)c2c3c(c1OC)-c1ccccc1CC3N(S(=O)(=O)c1ccc(C)cc1)CC2 (stereo not drawn)            growth         %          36.5
19                    FCOC(C(F)(F)F)C(F)(F)F            growth         %           113
20   CCOC(=O)c1c(-c2cc(OC)c(OC)c(OC)c2)csc1N            growth         %           101
21         NC(=O)c1cc(I)ccc1NC(=O)COc1ccccc1            growth         %            25
22  COc1ccc(S(=O)(=O)c2ccc(C(N)=O)cc2)cc1NC(=O)c1[nH]c(C)c2c1CCCCC2=O            growth         %          82.9
23                         COc1ncc(F)c(OC)n1            growth         %           110
24  COc1cccc2c(=O)c3c(sc12)c(NCCN(C)C)nc1ccccc13            growth         %          3.35
25  O=C(c1ccc2ncc(-c3nc(NC4CC4)ncc3F)n2c1)N1CCOCC1            growth         %          11.3
26  Clc1ccc(Nc2ccnc(N3CCN(c4ccnc5cc(Cl)ccc45)CC3)n2)cc1            growth         %          78.2
27                      CSc1ccc(OC(C)=O)cc1C            growth         %            94
28                    COC(=O)CCC(=O)c1ccccc1            growth         %           106
29  COc1ccc(-c2c3c(N)c4c(nc3nc3c2c(C)nn3-c2ccccc2)CCCCC4)cc1            growth         %          91.6
30                       Cc1nc2ccc(Cl)cc2n1C            growth         %           115
31  O=C(NCc1ccco1)C1CCN(S(=O)(=O)c2ccc(Cl)cc2)CC1            growth         %         -18.5
32              Cc1nc2nc(C(F)(F)F)[nH]c2nc1C            growth         %           115
33  COC(=O)/C=C1/CCC2C3CCC4=CC(=O)C(Br)CC4(C)C3C(=O)CC12C (stereo not drawn)            growth         %            75
34  CCCCCCCCCCCCCCNc1nc(CO)ncc1-c1ccc(C(F)(F)F)cc1            growth         %           103
35            O=c1nc(NO)[nH]c(=O)n1Cc1ccccc1            growth         %           115
36  Cc1nc2cc(Nc3nc(NCCO)nc(Nc4ccc(F)cc4)n3)ccc2n1Cc1ccccc1            growth         %          88.5
37  CN1CCN(c2nc(-c3ccncc3)nc3sc4c(c23)CCCCCC4)CC1            growth         %            91
38  Cn1c(=O)c2c(-c3ccccc3F)n(-c3ccc4c(c3)OCO4)cc2n(C)c1=O            growth         %           110
39  Cc1nc2cc(Nc3nc(Cl)nc(Nc4ccc(F)cc4)n3)ccc2n1Cc1ccccc1            growth         %            64
40   CN1CCN(C(=O)OCCOCCOC(=O)N2CCN(C)CC2)CC1            growth         %           111
41            Oc1cccc(Nc2nc(-c3ccccn3)cs2)c1            growth         %           122
42      COc1ccc(/C=C(\C#N)c2cc3ccccc3n2C)cc1            growth         %          2.99
